Readings of pIC50 for the listed compounds
biological target: human FAAH (Fatty Acid Amide Hydrolase) (Homo sapiens (Human), UniProt O00519); test: FAAH inhibition, human FAAH CHO cell lysate (AAMCA fluorescence); type: biochemical
Sequence (O00519 whole entry): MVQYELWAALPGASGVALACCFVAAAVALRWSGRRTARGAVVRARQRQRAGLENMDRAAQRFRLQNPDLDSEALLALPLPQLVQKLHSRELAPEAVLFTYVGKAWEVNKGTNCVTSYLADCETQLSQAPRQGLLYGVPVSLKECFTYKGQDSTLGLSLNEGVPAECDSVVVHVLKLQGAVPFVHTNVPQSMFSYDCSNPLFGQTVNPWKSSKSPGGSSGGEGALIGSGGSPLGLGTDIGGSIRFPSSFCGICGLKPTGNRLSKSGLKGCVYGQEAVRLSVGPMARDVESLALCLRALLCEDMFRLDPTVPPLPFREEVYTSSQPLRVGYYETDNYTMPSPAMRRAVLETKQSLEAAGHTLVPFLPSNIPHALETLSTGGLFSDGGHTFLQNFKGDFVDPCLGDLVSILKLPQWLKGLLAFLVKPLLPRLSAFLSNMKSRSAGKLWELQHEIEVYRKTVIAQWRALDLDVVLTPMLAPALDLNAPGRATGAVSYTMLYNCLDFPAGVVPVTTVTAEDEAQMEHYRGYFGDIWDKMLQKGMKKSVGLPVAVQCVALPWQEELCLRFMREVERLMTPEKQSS
Scale explanation: pIC50 corresponds to minus log10 of a concentration expressed in moles per litre.

Sample records with pIC50:
>>> observed_measurement("CN(C)CCOC(=O)N1CCC(c2nc(-c3ccc([S+](C)[O-])cc3)c(Sc3ccc(Cl)cn3)o2)CC1 (stereo not shown)")
5.72
>>> observed_measurement("C[S+]([O-])c1ccc(-c2nc(C3CCN(C(=O)OC(C)(C)C)CC3)oc2Sc2ccc(Cl)cn2)cc1 (stereo not shown)")
7.17
>>> observed_measurement("COCCOCCOCC(=O)N1CCC(c2nc(-c3ccc([S+](C)[O-])cc3)c(Sc3ccc(Cl)cn3)o2)CC1 (stereo not shown)")
6.13

Please find the next compound below.
Returns the measured pIC50 for the input compound. Input: Clc1ccc(Sc2oc(C3CCOCC3)nc2-c2cnc3cc[nH]c3c2)cc1
6.95

----------
molecular target: human FAAH (Fatty Acid Amide Hydrolase) (Homo sapiens (Human), UniProt O00519); test: FAAH inhibition, human FAAH CHO whole cell format; format: cell-based
Readings of log10 IC50 for the listed compounds
# log10 transformed; quantity=IC50; unit=nM

Sample records with log10 IC50:
>>> observed_measurement("COCCOC(=O)N1CCC(c2nc(-c3ccc([S+](C)[O-])cc3)c(Sc3ccc(Cl)cn3)o2)CC1 (stereo not drawn)")
3.12
>>> observed_measurement("C[S+]([O-])c1ccc(-c2nc(C3CCN(C(=O)Oc4ccccc4)CC3)oc2Sc2ccc(Cl)cn2)cc1 (stereo not drawn)")
2.09
>>> observed_measurement("Clc1ccc(Sc2oc(C3CCOCC3)nc2-c2cn[nH]c2)cc1")
2.87

Query for human FAAH (Fatty Acid Amide Hydrolase) (Homo sapiens (Human), UniProt O00519): what log10 IC50 does the record show for C[S+]([O-])c1ccc(-c2nc(C3=CCOCC3)oc2Sc2ccc(Cl)cc2)cc1 (stereo not drawn) ?
1.49

Query for human FAAH (Fatty Acid Amide Hydrolase) (Homo sapiens (Human), UniProt O00519): what log10 IC50 does the record show for COC(=O)[C@H]1CC[C@@H](c2nc(-c3ccc(C(C)(C)O)nc3)c(Sc3ccc(Cl)cc3)o2)CC1 ?
1.15

----------
target: human FAAH (Fatty Acid Amide Hydrolase) (Homo sapiens (Human), UniProt O00519); test: FAAH inhibition, human FAAH CHO whole cell format; assay type: cell-based
Readings of IC50 for the listed compounds
Report only the number, with the unit nM understood.

Sample records with IC50:
>>> observed_measurement("Clc1ccc(Sc2oc(C3CCOCC3)nc2-c2ccc3ncnn3c2)cc1")
421
>>> observed_measurement("Clc1ccc(Sc2oc(C3CCOCC3)nc2-c2ccc3[nH]ncc3c2)cc1")
10.9
>>> observed_measurement("C[S+]([O-])c1ccc(-c2nc(C3=CCCCC3)oc2Sc2ccc(Cl)cc2)cc1 (centres unmarked)")
105
>>> observed_measurement("O=C(c1ccc(-c2nc(C3CCOCC3)oc2Sc2ccc(Cl)cc2)cc1)N1CC2CC1CO2 (centres unmarked)")
375
>>> observed_measurement("CCNC(=O)[C@H]1CC[C@H](c2nc(-c3ccc(C(C)(C)O)nc3)c(Sc3ccc(Cl)cc3)o2)CC1")
26.2

Returns the measured IC50 for the input compound. Input: CC(C)OC(=O)N1CCC(c2nc(-c3ccc([S+](C)[O-])cc3)c(Sc3ccc(Cl)cn3)o2)CC1 (centres unmarked)
383

Returns the measured IC50 for the input compound. Input: CC(C)(O)c1ccc(-c2nc(C3CCOCC3)oc2Oc2ccc(Cl)cc2)cn1
290

Returns the measured IC50 for the input compound. Input: C[S+]([O-])c1ccc(-c2nc(C3CCN(S(C)(=O)=O)CC3)oc2Sc2ccc(Cl)cn2)cc1 (centres unmarked)
3280

Returns the measured IC50 for the input compound. Input: C[S+]([O-])c1ccc(-c2nc(C3CCN(C(=O)OC(C)(C)C)CC3)oc2Sc2ccc(Cl)cn2)cc1 (centres unmarked)
771
